The reported numbers originate from patent US6903101B1.

Where a name gives a salt, the structure may show the parent alone.
QUANTITY_MEASURED: melting point

Query block: Fill in: melting point of NC(=O)c1cc(Cc2nnc(Nc3ccc(Cl)cc3)c3ccccc23)ccn1 (as salt: methanesulfonate) [Example 14, dimethanesulfonate] is ___
Result block: 156 to 161 °C

Query block: Fill in: melting point of NC(=O)c1cc(COc2nnc(Nc3ccc(Cl)cc3)c3ccccc23)ccn1 (as salt: hydrochloride) [Example 15, dihydrochloride] is ___
Result block: 143 to 145.2 °C

Query block: Fill in: melting point of Cl.Cl.NC(=O)c1cc(Cc2nnc(Nc3ccc(Cl)cc3)c3ccccc23)ccn1 is ___
Result block: 180 to 198 °C

Query block: Fill in: melting point of CNC(=O)c1cc(Cc2nnc(Nc3ccc(Cl)cc3)c3ccccc23)ccn1 (as salt: methanesulfonate) [Example 12, dimethanesulfonate] is ___
Result block: 245 to 249 °C

Query block: Fill in: melting point of N#CC(c1ccncc1)c1nnc(Nc2ccc3c(c2)CCC3)c2ccccc12 (centres unmarked) is ___
Result block: 122 to 123 °C

Query block: Fill in: melting point of c1ccc2c(Nc3ccc4ncsc4c3)nnc(Cc3ccncc3)c2c1 is ___
Result block: 163 to 164 °C

Query block: Fill in: melting point of NC(=O)c1cc(COc2nnc(Nc3ccc(Cl)cc3)c3ccccc23)ccn1 (as salt: methanesulfonate) [Example 16, dimethanesulfonate] is ___
Result block: 75 to 80 °C

Query block: Fill in: melting point of CNC(=O)c1cc(Cc2nnc(Nc3ccc(Cl)cc3)c3ccccc23)ccn1 (as salt: hydrochloride) [Example 11, dihydrochloride] is ___
Result block: 255 °C (dec.)
